Origin of measurements: paper doi:10.1101/2024.08.14.606984v2

Tested Target: GCN2 (Homo sapiens, UniProt Q9P2K8)
Sequence (Q9P2K8 whole entry): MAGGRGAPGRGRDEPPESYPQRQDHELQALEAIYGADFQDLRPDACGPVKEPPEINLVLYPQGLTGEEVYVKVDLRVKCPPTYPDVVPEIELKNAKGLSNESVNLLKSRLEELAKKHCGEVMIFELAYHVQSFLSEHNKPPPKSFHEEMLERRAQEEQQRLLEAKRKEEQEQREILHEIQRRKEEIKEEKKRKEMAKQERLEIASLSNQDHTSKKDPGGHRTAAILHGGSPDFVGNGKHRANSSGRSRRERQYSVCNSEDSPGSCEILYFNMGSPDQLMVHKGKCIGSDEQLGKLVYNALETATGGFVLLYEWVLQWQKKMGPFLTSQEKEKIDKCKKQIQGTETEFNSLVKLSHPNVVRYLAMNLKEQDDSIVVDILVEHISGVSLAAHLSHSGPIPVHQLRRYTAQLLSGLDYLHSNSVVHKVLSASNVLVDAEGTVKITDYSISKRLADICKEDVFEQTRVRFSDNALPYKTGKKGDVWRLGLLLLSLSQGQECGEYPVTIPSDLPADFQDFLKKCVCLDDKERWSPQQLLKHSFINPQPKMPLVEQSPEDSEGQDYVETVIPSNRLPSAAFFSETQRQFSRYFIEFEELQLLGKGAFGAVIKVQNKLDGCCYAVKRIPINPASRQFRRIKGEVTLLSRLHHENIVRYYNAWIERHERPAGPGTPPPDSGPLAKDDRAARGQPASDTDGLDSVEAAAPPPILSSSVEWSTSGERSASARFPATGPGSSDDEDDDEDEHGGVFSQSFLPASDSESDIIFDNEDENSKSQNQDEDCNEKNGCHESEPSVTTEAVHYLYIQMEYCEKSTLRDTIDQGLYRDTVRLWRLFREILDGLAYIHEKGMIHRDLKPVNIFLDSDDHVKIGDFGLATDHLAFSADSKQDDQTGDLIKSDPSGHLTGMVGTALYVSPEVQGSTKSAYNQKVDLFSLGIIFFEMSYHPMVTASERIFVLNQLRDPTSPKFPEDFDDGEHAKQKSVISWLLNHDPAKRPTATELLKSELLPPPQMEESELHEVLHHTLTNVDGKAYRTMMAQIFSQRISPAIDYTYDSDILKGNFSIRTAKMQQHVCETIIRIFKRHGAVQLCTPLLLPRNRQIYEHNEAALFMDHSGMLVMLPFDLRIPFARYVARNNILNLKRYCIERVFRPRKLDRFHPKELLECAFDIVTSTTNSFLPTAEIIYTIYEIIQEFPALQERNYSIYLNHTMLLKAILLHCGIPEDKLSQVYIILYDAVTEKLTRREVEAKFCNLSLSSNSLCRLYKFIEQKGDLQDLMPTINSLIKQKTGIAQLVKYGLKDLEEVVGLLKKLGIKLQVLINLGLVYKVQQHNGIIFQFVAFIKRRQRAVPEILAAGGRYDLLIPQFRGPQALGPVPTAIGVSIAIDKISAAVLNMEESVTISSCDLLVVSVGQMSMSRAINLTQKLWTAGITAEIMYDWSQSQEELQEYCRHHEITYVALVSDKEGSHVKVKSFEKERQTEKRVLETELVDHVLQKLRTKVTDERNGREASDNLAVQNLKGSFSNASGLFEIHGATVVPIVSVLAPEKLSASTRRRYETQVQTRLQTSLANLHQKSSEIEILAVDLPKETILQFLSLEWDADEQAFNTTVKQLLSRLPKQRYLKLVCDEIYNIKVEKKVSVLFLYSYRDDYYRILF
Property Measured: pKd
Kindly note that pKd refers to -log10 of the concentration in mol/L and answer with the value alone.

The observed pKd for CNc1ncc2cc(-c3cc(NC(=O)NCCC(C)(C)C)c(F)cc3C)c(C)nc2n1 [LY-3009120] when tested with GCN2 (Homo sapiens, UniProt Q9P2K8) stands at 4.37
